# Tgt: T1, human MMP-2 (Biomol #SE-237) (human, UniProt P08253 110-452, limits assumed)
# T1 construct: also called hMMP-2
# Test Protocol: Ki,app, enzyme inhibition assay (fluorogenic peptide substrate), small-scale sFab
# Protocol: Target enzymes were incubated with inhibitor for two hours at 30° C. in reaction buffer (50 mM Tris-HCl pH 7.5, 150 mM NaCl, 5 mM CaCl₂, 0.05% Brij-35) in a total volume of 90 μL using a white 96 well plate (Costar). […] Reactions were initiated by the addition of 10 μL of a 10× concentrated stock of substrate, Mca-Lys-Pro-Leu-Gly-Leu-Dap(Dnp)-Ala-Arg-NH2, (Bachem M-2350), at final concentration of 10 μM and monitored at 30° C. in a Molecular Devices' Gemini fluorescence plate reader. […]

| Binder | Ki [nM] |
| --- | --- |
| M0275-E12 (Fab, V domains shown, sFab; variable domains only; also called M275-E12) VH: EVQLLESGGGLVQPGGSLRLSCAASGFTFSHYDMWWVRQAPGKGLEWVSVIYSSGGFTGYADSVKGRFTISRDNSKNTLYLQMNSLRAEDTAVYYCAKDRAYGDYVGWNGFDYWGQGTLVTVSS VL: DIQMTQSPATLSLSPGERATLSCRASQSISSFLAWYQQKPGQAPRLLIYDASYRATGIPARFSGSGSGTDFTLTISSLEPEDYAVYYCQQRGNWPITFGQGTRLEIK | 0.9 |
| M0276-F11 (Fab, V domains shown, sFab; variable domains only; also called M276-F11) VH: EVQLLESGGGLVQPGGSLRLSCAASGFTFSWYDMWWVRQAPGKGLEWVSVIYSSGGPTFYADSVKGRFTISRDNSKNTLYLQMNSLRAEDTAVYYCAKDRAYGDYVGWNGFDYWGQGTLVTVSS VL: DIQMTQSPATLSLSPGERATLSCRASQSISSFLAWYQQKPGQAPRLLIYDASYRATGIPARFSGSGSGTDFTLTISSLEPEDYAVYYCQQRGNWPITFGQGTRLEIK | 0.2 |
